PROTOCOL SUMMARY: Toxicity test in mice, mortality after 7 days (Litchfield and Wilcoxon)
Design: species or system mice (ddY-SLC)
CONDITION DESCRIPTION: mouse, in vivo, female mice
ENDPOINT: LD50 at 168 h (mg/kg)
Your answer should be a plain number; it is taken to be in mg/kg.

- SMILES RECORD: "CSCc1cc(OC(=O)N(C)C)no1"
  UNITS OF MEASURE: "mg/kg"
  RECORDED VALUE: 109

Ask: Request the reported LD50 at 168 h associated with CCSCc1cc(OC(=O)N(C)C)no1
Reply: 104

###

Tested on: green peach aphid (Myzus persicae)
PROTOCOL SUMMARY: Control of green peach aphid, contact activity
Format: in vivo
CONDITION DESCRIPTION: topical, 50 ppm, 72 hours, 25° C., read-out: Percentage mortality of green peach aphid, Contact
ENDPOINT: mortality at 50 ppm (%)
Your answer should be a plain number; it is taken to be in %.

Example results:
- COMPOUND: "COCc1cc(OC(=O)N(C)C)no1"
  mortality at 50 ppm, %: 84
- COMPOUND: "CN(C)C(=O)Oc1noc(CS(C)(=O)=O)c1Cl"
  mortality at 50 ppm, %: 82
- COMPOUND: "CCCSCc1cc(OC(=O)N(C)C)no1"
  mortality at 50 ppm, %: 86
- COMPOUND: "CSCc1onc(OC(=O)N(C)C)c1Br"
  mortality at 50 ppm, %: 100
- COMPOUND: "Cc1cc(OC(=O)N(C)C)no1 [3-Dimethylcarbamoyloxy-5-methylisoxazole, reference compound]"
  mortality at 50 ppm, %: 84
- COMPOUND: "CC(C)SCc1cc(OC(=O)N(C)C)no1"
  mortality at 50 ppm, %: 81
- COMPOUND: "CC[S+]([O-])Cc1cc(OC(=O)N(C)C)no1 (stereo not shown)"
  mortality at 50 ppm, %: 88
- COMPOUND: "CSCc1onc(OC(=O)N(C)C)c1I"
  mortality at 50 ppm, %: 86

Ask: Request the reported mortality at 50 ppm associated with CSCc1onc(OC(=O)N(C)C)c1Cl
Reply: 100

Ask: Request the reported mortality at 50 ppm associated with CN(C)C(=O)Oc1cc(C[S+](C)[O-])on1 (stereo not shown)
Reply: 86

###

System: green peach aphid (Myzus persicae)
PROTOCOL SUMMARY: Control of green peach aphid, systemic activity
Type: in vivo
CONDITION DESCRIPTION: 6.25 ppm, 72 hours, 25° C., read-out: Percentage mortality of green peach aphid, Systemic
ENDPOINT: mortality at 6.25 ppm (%)
Your answer should be a plain number; it is taken to be in %.

Example results:
- COMPOUND: "CCSCc1cc(OC(=O)N(C)C)no1 [Compound No. 2]"
  RECORDED VALUE: 100
- COMPOUND: "CCCSCc1cc(OC(=O)N(C)C)no1 [compound 3]"
  RECORDED VALUE: 100

Ask: Request the reported mortality at 6.25 ppm associated with CCSCc1onc(OC(=O)N(C)C)c1Cl [compound 10]
Reply: 100

Ask: Request the reported mortality at 6.25 ppm associated with CN(C)C(=O)Oc1cc(CS(C)(=O)=O)on1 [compound 7]
Reply: 85

Ask: Request the reported mortality at 6.25 ppm associated with COCc1cc(OC(=O)N(C)C)no1 [compound 15]
Reply: 100

Ask: Request the reported mortality at 6.25 ppm associated with CC(C)SCc1cc(OC(=O)N(C)C)no1 [compound 4]
Reply: 96

Ask: Request the reported mortality at 6.25 ppm associated with CSCc1onc(OC(=O)N(C)C)c1Br [compound 13]
Reply: 100

Ask: Request the reported mortality at 6.25 ppm associated with CN(C)C(=O)Oc1noc(CS(C)(=O)=O)c1Cl [Compound No. 12]
Reply: 90

Ask: Request the reported mortality at 6.25 ppm associated with CCS(=O)(=O)Cc1cc(OC(=O)N(C)C)no1 [compound 8]
Reply: 85

Ask: Request the reported mortality at 6.25 ppm associated with CN(C)C(=O)Oc1cc(C[S+](C)[O-])on1 (stereo not shown) [Compound No. 5]
Reply: 100

Ask: Request the reported mortality at 6.25 ppm associated with CSCc1onc(OC(=O)N(C)C)c1Cl [Compound No. 9]
Reply: 100

Ask: Request the reported mortality at 6.25 ppm associated with CC[S+]([O-])Cc1cc(OC(=O)N(C)C)no1 (stereo not shown) [compound 6]
Reply: 100

Ask: Request the reported mortality at 6.25 ppm associated with Cc1cc(OC(=O)N(C)C)no1 [3-Dimethylcarbamoyloxy-5-methylisoxazole, reference compound]
Reply: 89

Ask: Request the reported mortality at 6.25 ppm associated with CN(C)C(=O)Oc1noc(C[S+](C)[O-])c1Cl (stereo not shown) [compound 11]
Reply: 100

Ask: Request the reported mortality at 6.25 ppm associated with CSCc1onc(OC(=O)N(C)C)c1I [compound 14]
Reply: 100

Ask: Request the reported mortality at 6.25 ppm associated with CSCc1cc(OC(=O)N(C)C)no1 [Compound No. 1]
Reply: 100
